B1: EHEE_rd2_0601 (parent)
chain: TYTYKLTDEEASRRAEDEWRNRGYDVRVRNNNGTWEVEVR

- Variants of: B1
- Method description: folding stability dG (cDNA display proteolysis); higher = more stable
- Particulars: PBS, room temperature
Value kind: folding stability dG (kcal/mol)
Numbers only, in kcal/mol.

Data request: Name the recorded folding stability dG for T34W .
Data returned: 1.54

Data request: What does the record list as folding stability dG for E9Y ?
Data returned: 1.58

Data request: Any idea what its folding stability dG is? The variant is A11K
Data returned: 0.673

Data request: Item T1Q has what recorded folding stability dG?
Data returned: 1.03

Data request: Item T3L has what recorded folding stability dG?
Data returned: 1.46

Data request: Quick one: folding stability dG of D8Y ?
Data returned: 0.298

Data request: Any idea what folding stability dG was measured for W19L ?
Data returned: 0.884

Data request: Request the reported folding stability dG associated with R20E
Data returned: -0.108

Data request: Can you share its folding stability dG? I mean this variant: K5E
Data returned: 1.31

Data request: // returns reported folding stability dG for input N21R
Data returned: 1.96

// for each variant below, give its folding stability dG
1. V28A
2. D25L
3. E38K

Data returned:
1. 0.322
2. 1.48
3. 0.392
